# System: K4 kissing-loop RNA reporter;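 also: bound reporter read as fluorescence of individual clusters on recovered sequencing chips by microscopy, with normalized cluster intensities fitted with a binding model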
# experimental-protocol: apparent KD of K4 kissing-loop reporter; higher = weaker reporter binding
# assay-conditions: Eterna round: R107; input ligand: arginine 13.2 mM
Decide by apparent KD of K4 kissing-loop reporter: equal to or exceeding 200 nM means met, less means not met.

The following sequences have reported results that may help.
UGGAGUUGACGAAAAGUCAACUCCUGAGAUACCAGUGACGAAAGUCACCCUUGGCAGCUCACUGCCAGUGAUGUUGGUAAAUAAA [#OpenEnded 3]	not met
UACGUAGAGCGAGGAUAUCCUUCCCACGUCGAAGUACCGUGCUUGAUGGAGUGAUGUUCGAUCAGAGGAGAAGGUGCGAAACGUC [Flavin Switch Lower Fold Energy]	met
GCUCAGGAGUGAUGUUCCAAGUGAUGUUAACGAGGACCGGUACGGCCGCCACUCGAUACGGCCGGACCGUAGGAUAAACUAGAGC [Same State - Tryptophan A (Freestyle 9)]	not met

Q: Could you tell me if the measured apparent KD of K4 kissing-loop reporter of UGCGCUGUGUACUGAAAUGUUAUGCGGGAUACCAGAGUCUUUUUAUUCCCUUGGCAGCUUGAGUGAUGUUUGAUGCCGUUCUUGU [po,,mmullin] reaches 200 nM or more?
Result: met

----------
# Tested on: MS2 coat protein
# experimental-protocol: apparent KD of MS2 coat protein; designed switch direction (-1 OFF switch, 1 ON switch): -1; higher = weaker reporter binding
# assay-conditions: input ligand: none
metric-name: apparent KD of MS2 coat protein
Answer format: value, then unit.

GAUAGAGAGCAGGAUAUCUUAGAAAUGUAUUAUAGAGAAGGGCUCACAUGAGGAUCACCCAUGUGGUCCUAGAU [JL Dibiri mod 15] (Eterna round: R96, puzzle: Exclusion 6)	0.0196 µM
CCAUAGUCAGGAUAUACAUGAGGAUCACCCAUGUAAAAUUUUAAUUUAAUUUGAAGGUGUAGAAGGGACCAACC [Ex3 #30] (Eterna round: R97, puzzle: Exclusion 3)	0.0332 µM
UAUUCGCGAGGAUAUGCAGUCGAGUCCAUUACGUGUCUGGGACUUGAGGAUCACCCAAGUAGAAGGCGUCUCAU [salish99_ex2_r4_642] (Eterna round: R97, puzzle: Exclusion 2)	0.123 µM
CUAAUACAUGUGAGGAUAUACGACUUGGAGACGGCGUAGAAGGUACAUGAGGAUCACCCAUGUGCGGGCUCCUU [Eternabot (L1) Solution 49] (Eterna round: R97, puzzle: Brourd's mod of Exclusion 4)	0.0275 µM
CAAUAGUGAGGAUAUCUGAUCACACCAUGAAGAAGGAGUGUAGAGAAGGCACAUGAGGAUCACCCAUGUCCCGU [Eternabot (L2) Solution 43] (Eterna round: R97, puzzle: Exclusion 4)	0.0239 µM

Each of the following entries comes with a recorded value; kindly state apparent KD of MS2 coat protein for each.
1. GCGGACAAGAUGGUGACAUCAGAGACAUGAGGAUCACCCAUGUAGGAUAUCGAUUCGAAACGAAUCGAGAAGGGCAUAGUCCGC [JL denovo 3] (Eterna round: R96, puzzle: Exclusion NG 3)
2. AGAUCACAUGAGGAUCACCCAUGUGAGGAUAUAGAUUCAAGAGCUUCGGCUCUAAAGUCUAGAAGGCACUAUGA [EX1 #47] (Eterna round: R97, puzzle: Exclusion 1)
3. GUAGAGUGAGGAUAUACAAGAUCGAAAGAUCGGCGAUCCAUACAUGAGGAUCACCCAUGUAGAAGGCACUCUAC [Eli x2 4.007] (Eterna round: R97, puzzle: Exclusion 2)
4. UCAAGUCCAUAGGAUAUCGACCAGUCCUCUGGAUGAGAAGGAUGAACUUGAGGAUCACCCAAGUGGCCGAAUAA [Aesin] (Eterna round: R97, puzzle: Exclusion 6)
5. AAAAUAAAAGCAGGAUAUCGACCUCCCAAGUGGCGAGAAGGGCUAGACGGGCGGUCUAACAUGAGGAUCACCCAUGUCAACAAA [Soorante] (Eterna round: R96, puzzle: Exclusion NG 1)

Result:
0.224 µM
0.0254 µM
0.102 µM
0.0463 µM
0.0347 µM

----------
# System: MS2 coat protein
# experimental-protocol: apparent KD of MS2 coat protein; designed switch direction (-1 OFF switch, 1 ON switch): 1; higher = weaker reporter binding
# assay-conditions: input ligand: none
metric-name: apparent KD of MS2 coat protein
Answer format: value, then unit.

GUAGCAUACCGAGGAUAUUCAUAUUACAUGAGGAUCACCCAUGUUAAAGAUAGGCGAAAGCCUUGGGAGAAGGCGGAAUGCUAC [Xeonanis - 20 Mod68] (Eterna round: R96, puzzle: Same State NG 2)	11.3 nM
AGUAUUAAUGCAGGAUAUGAUUAACAUGAGGAUCACCCAUGUGGUGUUGUGAGUAAGGAGAGUGAUCAGAAGGGCAUUUUUUUU [JMF's solution 38] (Eterna round: R96, puzzle: Same State NG 2)	502 nM
GUUCGGAAUCGAGCUGACAUGAGGAUCACCCAUGUUAGUGGGAAGGAUAUGGUACAGAAACUGUACCAGAAGGUCUUACUGUCU (Eterna round: R96, puzzle: Same State NG 3)	67.4 nM
GGUAUCGACACAGGAUAUGCUAUCCUUUGGGUAGCAGAAGGGUGAACAUGAGGAUCACCCAUGUAGGUGCCAGGGCGUGAGCCC [JL SSNG1 1.79] (Eterna round: R96, puzzle: Same State NG 1)	787 nM
CUCCGGAAGCGAGGAUAUGCAGAGGAUCACCCUGCAGAAGGCGCCCUUGCGAGGAUAUGCAGAGGAUCACCCUGCAGAAGGCGC [pwkr ssNG DX.30] (Eterna round: R96, puzzle: Same State NG 1)	28 nM

Each of the following entries comes with a recorded value; kindly state apparent KD of MS2 coat protein for each.
1. GCGAGCGUACUUGCUACAUGAGGAUCACCCAUGUCUGUUGGACAGGAUAUGGUACCGUUUCGGUACCAGAAGGGUUCAUCAUGU [JL SSNG3 3.74] (Eterna round: R96, puzzle: Same State NG 3)
2. GCUACCAAUGAAGCCAACAUGAGGAUCACCCAUGUAUGUUGGCAGGAUAUCGAUUGCAAAGCGAUCGAGAAGGGCUAAGGUAGC [Mat - Same State NG 3 - JL Mod - D87] (Eterna round: R96, puzzle: Same State NG 3)
3. GCUAGUAUUAUUGUCAACAUGAGGAUCACCCAUGUAUGUUGGCAGGAUAUCGUUUGCUUUGCAAACGAGAAGGGCUAAACUAGC [JL SSNG3 1.04] (Eterna round: R96, puzzle: Same State NG 3)
4. ACCCGCGACGGAGGAUAUGGGCACUCGGCGAAAUAAACCGCCAUAACAUGAGGAUCACCCAUGUCCCAGAAGGCCGCCGCAAAC [Leatve] (Eterna round: R96, puzzle: Same State NG 2)

Result:
1: 262 nM; 2: 177 nM; 3: 231 nM; 4: 505 nM

----------
Could you please report measured apparent KD of MS2 coat protein for the items listed next?
# Tested on: MS2 coat protein
# experimental-protocol: apparent KD of MS2 coat protein; higher = weaker reporter binding
# assay-conditions: Eterna round: R107; input ligand: theophylline 2 mM
Numbers only, in nM.

UCGUAGGUAGGAAGGAGCGCAUACUUCACAUGAGGAUCACCCAUGUCGAGACGUGAGUCAGUGCAGGUAGGUCGCCUAGCUAUGA [Same State - Arginine B (Freestyle 25)]	28.3

Each of the following entries comes with a recorded value; kindly state apparent KD of MS2 coat protein for each.
1. UCCUGCAGAGCGGCCGCCACUGUGUUGCGUGAGGAUGACCCAACAUGAGGAUCACCCAUGUUGUUUAGGACCGGGCUUGCCUCGA [xcmulliny]
2. UGUAUGUGAUUUGAUACCAGACCAGCUGGUGGUACUUGAGGAUCACCCAGGUAGGUUUGGGUCCCUUGGCAGCAAAUCGCAUACU [SS Theo B #24 Ms12]

Result:
15.5
408

----------
Could you please report measured apparent KD of MS2 coat protein for the items listed next?
# Tested on: MS2 coat protein
# experimental-protocol: apparent KD of MS2 coat protein; higher = weaker reporter binding
# assay-conditions: Eterna round: R107; input ligand: tryptophan 2.4 mM
Answers are plain numbers, in nM.

See these solved cases before continuing.
ACCUGUACGAAAAGUGCAGGACACGGAAUACGAGGACCGGUACGGCCGCCACUCGGAAUAAACCUGAGGAUCACCCUGGUCCGUG [TrypAS 9 #AlternativeMS2 #Zipper #StaticStem]	32.2
AGCACGGUGAUGGUAGCCGGACGCUAAGUACGAGGACCGGUACGGCCGCCACUCGGAGUCCUACGACAUGAGGAUCACCCAUGUA [Same State Trp A GF12]	33.6
GGUUGGUCGCAGGAUACCAGUCCACCCGUGAUACUGCUAAACAUGAGGAUCACCCAUGUCGACCCUUGGCAGCCUGUCCAUGCGU [theeternabot_exclusion_MS2_Theo_B_45]	17.1
GAAGAGAGGAUACCGUUUGUAUACAACGAUACCAGUGGUAUGUAUCACCCUUGGCAGCGUGAGACAUGAGGAUCACCCAUGUGGC [theeternabot_exclusion_MS2_Theo_A_46]	18.4

Next:
Value of apparent KD of MS2 coat protein reported for the sequence GGACUAACCUGAAGGAGCGACACGCAGAAACUGCAAAUUCCUCCACACGAGGAUCACCCGUGUCAGGUAGGUCGCAGGUUAGUCG [ArgBX 28] is 19.2
